B1: LINE1-full (parent)
chain: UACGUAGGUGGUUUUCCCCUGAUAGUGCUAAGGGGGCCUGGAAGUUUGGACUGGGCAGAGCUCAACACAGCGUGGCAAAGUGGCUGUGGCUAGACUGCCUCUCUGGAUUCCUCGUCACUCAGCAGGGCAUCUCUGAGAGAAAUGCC

# Variants of: B1
# Measurement description: self-cleavage, relative activity (ratio to wild type); higher = more cleavage; in vitro, sequencing; the parent is a self-cleaving ribozyme
Please enter true where self-cleavage is greater than or equal to 1, and false where it is lower.

Consider the following illustrative entries.
INSERT INTO assay_data (variant_annotation, discrete_label) VALUES
  ('A65G C133U', 'false'),
  ('U12C A94U', 'false'),
  ('A42U U112C', 'true'),
  ('U73C U134A', 'true'),
  ('C16U A142G', 'false'),
  ('A42G G125A', 'true');

// next entry
Req: Please check the record G60C U96A and state if its self-cleavage is at or above 1.
Resp: false
